TGI for assorted molecules
- Tested on: HOP-92 NSCLC
- measurement protocol: NCI tumour cell line growth inhibition, 48 h
value kind: TGI (µM)

{"molecule": "O=C(NCCNC(=O)c1ccc(F)cc1)Nc1ccc(-n2cc(-c3ccncc3)c(-c3ccc(Cl)c(O)c3)n2)cc1", "value prefix": "=", "value reported": 5.23}
{"molecule": "CCOC(=O)CON=c1c2ccccc2ccc2ccccc12", "value prefix": ">", "value reported": 100}
{"molecule": "CC1(C)CC2C(/C1=N/O)C1(C)CCCC2(C)C1O (centres undefined)", "value prefix": ">", "value reported": 100}
{"molecule": "COc1cc2oc(-c3cccc(C(=O)Nc4ccc(C)cc4)c3)cc(=O)c2c(OC)c1OC", "value prefix": "=", "value reported": 5.46}
{"molecule": "CC(C)c1ccc(/C=N/N=C(N)N)cc1", "value prefix": "=", "value reported": 7.27}
{"molecule": "CCCCCCCCc1ccc(CCC(N)(CO)CO)cc1", "value prefix": "=", "value reported": 3.53}
{"molecule": "CCOC(=O)N1CCc2cc(OC)c(OC)cc2/C1=C/c1ccc(OC)c(OC)c1", "value prefix": ">", "value reported": 100}
{"molecule": "CC(=O)[C@]12OC(=O)C3=C1[C@H](CC[C@@H]3C)[C@@H](C)C[C@H]2C=C(C)C", "value prefix": "=", "value reported": 7.43}
{"molecule": "O=C1[C@@H]2C(c3ccncc3)=NO[C@@H]2C(=O)N1c1ccc(Cc2ccc(N3C(=O)[C@H]4C(c5ccncc5)=NO[C@H]4C3=O)cc2)cc1", "value prefix": ">", "value reported": 100}
{"molecule": "Nc1cc(N)cc(Cc2ccccc2)c1", "value prefix": ">", "value reported": 100}
{"molecule": "CC1(C)Cc2nnsc2C2=C1C(=O)CCS2", "value prefix": ">", "value reported": 100}
{"molecule": "CC(C)(C)OC(=O)NCC(=O)N(CCc1ccc(Cl)c(Cl)c1)CCN1CCCC1", "value prefix": "=", "value reported": 19.4}
{"molecule": "O=S(=O)([O-])[O-].[Fe+2].[OH2+]c1c(Cl)cc(Cl)cc1/C=N/Nc1ccccn1", "value prefix": "=", "value reported": 0.899}
{"molecule": "CC(=O)OC1CC2C(C)(C)OC(=O)CC(OC(C)=O)[C@]2(C)C2CCC3(C)C(=CCC3c3ccoc3)[C@]12C (some centres undefined)", "value prefix": "=", "value reported": 29.9}
{"molecule": "O=C1Nc2ccccc2/C1=N/N1C(=O)/C(=C/c2ccccc2S)N=C1c1ccccc1", "value prefix": ">", "value reported": 100}
{"molecule": "COC(=O)C1Cc2c([nH]c3ccccc23)-c2[nH]c3ccccc3c2CC(NC(C)=O)C(=O)NCC(=O)NCC(=O)N1 (centres undefined)", "value prefix": ">", "value reported": 100}
{"molecule": "O=C(O)c1cc2cc(O)ccc2[nH]1", "value prefix": ">", "value reported": 100}
{"molecule": "Oc1ccc2ccccc2c1NCn1nc(CCCCCCCCc2nn(CNc3c(O)ccc4ccccc34)c(=S)o2)oc1=S", "value prefix": ">", "value reported": 100}
{"molecule": "Cc1[nH]c(=O)nc(N/N=C/c2ccc(Cl)cc2)c1C(=O)Nc1ccc(Cl)cc1", "value prefix": "=", "value reported": 77.8}
{"molecule": "O=C(CSc1nc2ccc(I)cc2c(=O)n1Cc1ccccc1)NN1C(=O)CSC1c1ccccc1 (centres undefined)", "value prefix": "=", "value reported": 46.9}
{"molecule": "CNC(C)[C@H]1CCC2C3CCC4C[C@@H](N(C)C(=O)c5ccccc5)CC[C@]4(C)C3CC[C@@]21C (some centres undefined)", "value prefix": "=", "value reported": 3.52}
{"molecule": "CNC1=CC(=O)C2=C(C1=O)C1C3=C(C(=O)C(Br)=C(OC)C3=O)C2c2ccccc21 (centres undefined)", "value prefix": "=", "value reported": 2.97}
{"molecule": "O=C([CH-]C(=O)c1ccccc1)c1ccccc1.[CH3-].[CH3-].[CH3-].[Sn+4]", "value prefix": "=", "value reported": 67.3}
{"molecule": "CNC(=O)OCc1nc(N=[N+]=[N-])n(C)c1COC(=O)NC", "value prefix": "=", "value reported": 86.7}
{"molecule": "Cc1ccc(S(=O)(=O)NC(=O)NCC(N)=O)cc1", "value prefix": ">", "value reported": 100}
{"molecule": "CC(=O)Oc1cc(/C=C/c2ccc(O)cc2)cc(OC(C)=O)c1", "value prefix": ">", "value reported": 100}
{"molecule": "COC(=O)[C@@H]1[C@H](O)[C@H](C)[C@H](O)[C@H](C)/C=C\\C=C(C)C(=O)Nc2c(C)c(OC(C)=O)c3c(c2O)C(=O)C(C)=C2OCOC(=C23)C(C)=C[C@@](C)(O)[C@H](O)[C@@H](C)[C@H]1OC(C)=O", "value prefix": ">", "value reported": 100}
{"molecule": "N/N=C(/CC(O)(C(F)(F)F)C(F)(F)F)c1ccccc1", "value prefix": ">", "value reported": 10}
{"molecule": "CC1(C)N([O-])[N+](=O)C1(Br)c1ccccc1 (centres undefined)", "value prefix": ">", "value reported": 100}
{"molecule": "Clc1ccc(-c2nc(C(Cl)Cl)nc3cc(-c4ccccc4)nn23)cc1", "value prefix": ">", "value reported": 50}
{"molecule": "COC1C(O)CC(OC2CC(OC3CC(O[C@@H]4C(=O)c5c(cc6cc(OC7CC(OC8CC(O)C(O)C(C)O8)C(O)C(C)O7)c(C)c(O)c6c5O)C[C@H]4[C@H](OC)C(=O)[C@@H](O)[C@@H](C)O)OC(C)C3O)OC(C)C2O)OC1C (some centres undefined)", "value prefix": "=", "value reported": 1.06}
{"molecule": "Cc1ccccc1NC(=O)C(=O)CC(=O)C1CCOC1=O (centres undefined)", "value prefix": ">", "value reported": 100}
{"molecule": "CN1C(=O)C(C#N)C2C[C@@]1(C)Oc1ccccc12 (some centres undefined)", "value prefix": ">", "value reported": 100}
{"molecule": "N#CCN1CCN(CC#N)CCN(CC#N)CCN(CC#N)CC1", "value prefix": ">", "value reported": 100}
